Test system: HCT-116
Experiment: NCI tumour cell line growth inhibition, 48 h
Active and inactive are the calls of the source. No stated cut-off is given here; in the data, active = GI50 up to about 1.1 µM and inactive = higher.
Known GI50 of a selection of compounds

>  <compound>
Cc1ccc([N+](=O)[O-])cc1NC(=O)C(=O)C1CCC2=C(Sc3ccccc3N2)C1=O (stereo unspecified)

>  <GI50>
68.2 µM (inactive)

$$$$
>  <compound>
CC1=C2c3ccccc3N(S(=O)(=O)c3ccccc3)[C@H]2[C@H](C(=O)N2C3CC4CC[C@@]3(CS2(=O)=O)C4(C)C)CC1 (stereo partly specified)

>  <GI50>
11.7 µM (inactive)

$$$$
>  <compound>
Cc1c(-c2ccccc2)c(C#N)c2nnn(C3CCCCC3)c(=O)n12

>  <GI50>
52.6 µM (inactive)

$$$$
>  <compound>
O=c1[nH]c2c(S)nc(O)nc2n1-c1ccccc1

>  <GI50>
> 100 µM (inactive)

$$$$
>  <compound>
Cc1cc(-c2ccc[nH]2)on1

>  <GI50>
> 100 µM (inactive)

$$$$
>  <compound>
Nc1[nH]cnc2ncnc1-2

>  <GI50>
> 250 µM (inactive)

$$$$
>  <compound>
O=C(N/C=C/C=C/Sc1ccccc1)OCc1ccccc1

>  <GI50>
18.2 µM (inactive)

$$$$
>  <compound>
NC(=O)C/C=C/CC(N)=O

>  <GI50>
> 100 µM (inactive)

$$$$
>  <compound>
O=C1c2cscc2C(=O)C1(O)O

>  <GI50>
21.3 µM (inactive)

$$$$
>  <compound>
O=[N+]([O-])c1ccc(S(=O)(=O)Cc2ccccc2)c([N+](=O)[O-])c1

>  <GI50>
1.87 µM (inactive)

$$$$
>  <compound>
CS(=O)(=O)C[S+]([O-])C[S+]([O-])C[S+]([O-])CC(NC(=O)CCC(N)C(=O)O)C(=O)O (stereo unspecified)

>  <GI50>
> 100 µM (inactive)

$$$$

The origin of these recorded values is ChEMBL document CHEMBL1201862.
